IC50 reference
subject-of-test: human MAO-A (Homo sapiens)
Construct: expressed in transfected cells; host or cells: EBNA cells (transient transfection); cell membranes used
Sequence (P21397 1-527): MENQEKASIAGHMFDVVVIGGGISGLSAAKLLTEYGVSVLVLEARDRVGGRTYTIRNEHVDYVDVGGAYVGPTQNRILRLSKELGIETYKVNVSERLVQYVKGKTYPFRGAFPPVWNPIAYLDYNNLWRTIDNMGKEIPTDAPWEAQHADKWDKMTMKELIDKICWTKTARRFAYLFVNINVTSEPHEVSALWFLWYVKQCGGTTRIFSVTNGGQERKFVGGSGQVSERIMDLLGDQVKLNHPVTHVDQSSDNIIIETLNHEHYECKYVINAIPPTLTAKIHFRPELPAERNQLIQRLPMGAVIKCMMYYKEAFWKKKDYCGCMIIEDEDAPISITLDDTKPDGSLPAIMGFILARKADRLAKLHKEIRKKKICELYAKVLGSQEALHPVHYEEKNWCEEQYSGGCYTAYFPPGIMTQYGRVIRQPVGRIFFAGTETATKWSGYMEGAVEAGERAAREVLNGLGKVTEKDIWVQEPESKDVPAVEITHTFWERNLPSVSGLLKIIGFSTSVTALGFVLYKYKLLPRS
experimental-protocol: MAO-A enzymatic activity, spectrophotometric assay (tyramine, Amplex Red)
Format: biochemical
recorded-conditions: membranes of EBNA cells transfected with human MAO-A cDNA; 30 min preincubation at 37° C., pH 7.4; substrate tyramine
Give a bare numeral; the unit µM is implied.

[[record]]
compound = "COCC(=O)N1CCc2ccc(OCc3cccc(F)c3)cc2CC1 [Example 2]"
subject_of_test = "human MAO-A (Homo sapiens)"
observed_property = "IC50"
units_symbol = "µM"
measured_value = 5.5

[[record]]
compound = "CN1C=Cc2ccc(OCc3cccc(F)c3)cc2CC1=O [Example 13]"
subject_of_test = "human MAO-A (Homo sapiens)"
observed_property = "IC50"
units_symbol = "µM"
measured_value = 4.6

[[record]]
compound = "O=CN1CCc2ccc(OCc3cccc(F)c3)cc2CC1 [Example 6]"
subject_of_test = "human MAO-A (Homo sapiens)"
observed_property = "IC50"
units_symbol = "µM"
measured_value = 4.1


Query compound follows.
Problem: Dear colleague, I am looking for the recorded IC50 of the following compound: COC(=O)N1CCc2ccc(OCc3cccc(F)c3)cc2CC1 [Example 5]
Result: 4.5

###

subject-of-test: human MAO-B (Homo sapiens)
Construct: expressed in transfected cells; host or cells: EBNA cells (transient transfection); cell membranes used
Sequence (P27338 whole entry): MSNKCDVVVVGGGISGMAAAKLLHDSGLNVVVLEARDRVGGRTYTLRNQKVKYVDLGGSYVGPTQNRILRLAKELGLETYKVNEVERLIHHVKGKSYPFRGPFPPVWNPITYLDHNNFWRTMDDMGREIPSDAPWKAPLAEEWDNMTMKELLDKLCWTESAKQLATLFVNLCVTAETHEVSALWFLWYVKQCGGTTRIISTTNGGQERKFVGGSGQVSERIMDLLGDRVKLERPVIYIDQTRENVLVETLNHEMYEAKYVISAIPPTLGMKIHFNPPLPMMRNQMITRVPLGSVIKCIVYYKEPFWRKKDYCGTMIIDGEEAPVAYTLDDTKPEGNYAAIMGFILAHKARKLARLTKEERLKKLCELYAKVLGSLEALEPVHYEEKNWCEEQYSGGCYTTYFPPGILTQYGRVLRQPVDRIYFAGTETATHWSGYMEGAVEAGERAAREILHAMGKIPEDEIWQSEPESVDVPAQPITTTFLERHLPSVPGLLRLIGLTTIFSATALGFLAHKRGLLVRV
experimental-protocol: MAO-B enzymatic activity, spectrophotometric assay (tyramine, Amplex Red)
Assay type: biochemical
recorded-conditions: membranes of EBNA cells transfected with human MAO-B cDNA; 30 min preincubation at 37° C., pH 7.4; substrate tyramine
// reported IC50 for each item listed
Quote the value and follow it with the unit of measurement.

Illustrative cases are given below, each with its answer.
[[record]]
smiles_input = "NC(=O)N1CCc2ccc(OCc3cccc(F)c3)cc2CC1"
measured_value = "0.021 µM"

[[record]]
smiles_input = "NC(=O)C(=O)N1CCc2ccc(OCc3cccc(F)c3)cc2CC1"
measured_value = "0.024 µM"

[[record]]
smiles_input = "CC(=O)N1CCc2ccc(OCc3cccc(F)c3)cc2CC1"
measured_value = "0.082 µM"

[[record]]
smiles_input = "CN1C=Cc2ccc(OCc3cccc(F)c3)cc2CC1=O"
measured_value = "0.15 µM"

[[record]]
smiles_input = "COC(=O)N1CCc2ccc(OCc3cccc(F)c3)cc2CC1"
measured_value = "0.068 µM"

[[record]]
smiles_input = "CC(=O)N1C=Cc2ccc(OCc3cccc(F)c3)cc2CC1=O"
measured_value = "0.13 µM"


Problem: Tell me reported IC50 for COCC(=O)N1CCc2ccc(OCc3cccc(F)c3)cc2CC1 , tested with human MAO-B (Homo sapiens).
Result: 0.073 µM

Problem: Can you handle O=CN1CCc2ccc(OCc3cccc(F)c3)cc2CC1 next?
Result: 0.007 µM
